assay: self-splicing fitness, log relative to wild type (ln ratio); higher = more splicing; Tetrahymena group I intron in knt gene, E. coli kanamycin selection, DiMSum; sequences stand for … in CUCUCU…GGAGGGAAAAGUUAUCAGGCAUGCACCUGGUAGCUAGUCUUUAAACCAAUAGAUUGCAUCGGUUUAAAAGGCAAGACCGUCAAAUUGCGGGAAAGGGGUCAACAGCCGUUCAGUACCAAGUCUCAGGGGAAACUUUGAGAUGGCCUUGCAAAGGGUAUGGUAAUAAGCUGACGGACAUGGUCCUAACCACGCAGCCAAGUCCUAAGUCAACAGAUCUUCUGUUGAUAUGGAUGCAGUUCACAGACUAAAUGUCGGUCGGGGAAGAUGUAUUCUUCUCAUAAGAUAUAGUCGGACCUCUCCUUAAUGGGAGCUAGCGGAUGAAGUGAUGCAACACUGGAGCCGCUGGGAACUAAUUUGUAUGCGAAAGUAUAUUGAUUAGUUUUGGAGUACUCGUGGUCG; conditions: 30 °C;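 note: selection with 25 µg/mL kanamycin versus none on LB agar overnight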
readout: self-splicing fitness (ln)
No unit in the answer, only the number.

Record summary for UCUAAGCAAUAUUACGUAAU : reported self-splicing fitness (ln) = -3.41

Record summary for AUUUAGCAAUAUUACGGUUA : reported self-splicing fitness (ln) = -0.84

Record summary for CCAAAGCAAUAUUACGCCAG : reported self-splicing fitness (ln) = -1.3

Record summary for UUGCAGCAAUAUUACGUGCG : reported self-splicing fitness (ln) = -3.18

Record summary for CAACAGCAAUAUUACGACGG : reported self-splicing fitness (ln) = -0.0366

Record summary for UGGCAGCAAUAUUACGUGAA : reported self-splicing fitness (ln) = -0.78

Record summary for UCGAAGCAAUAUUACGUCUU : reported self-splicing fitness (ln) = -3.87

Record summary for CUGAAGCAAUAUUACGAUGC : reported self-splicing fitness (ln) = -3.46

Record summary for CCUUAGCAAUAUUACGUGGA : reported self-splicing fitness (ln) = -4.29

Record summary for GAAAAGCAAUAUUACGGCCG : reported self-splicing fitness (ln) = -0.796

Record summary for CCGUAGCAAUAUUACGUCUG : reported self-splicing fitness (ln) = -0.102

Record summary for CCUAAGCAAUAUUACGACUA : reported self-splicing fitness (ln) = -2.87

Record summary for GGCCAGCAAUAUUACGGGAU : reported self-splicing fitness (ln) = -1.73

Record summary for GCGCAGCAAUAUUACGGGAA : reported self-splicing fitness (ln) = -1.92

Record summary for CGAAAGCAAUAUUACGUGUG : reported self-splicing fitness (ln) = -0.273

Record summary for UGUCAGCAAUAUUACGAUUU : reported self-splicing fitness (ln) = -0.0817

----------
Exercise: state measured self-splicing fitness (ln) for each of the sequences provided.
test: self-splicing fitness, log relative to wild type (ln ratio); higher = more splicing; Tetrahymena group I intron in knt gene, E. coli kanamycin selection, DiMSum; sequences stand for … in CUCUCU…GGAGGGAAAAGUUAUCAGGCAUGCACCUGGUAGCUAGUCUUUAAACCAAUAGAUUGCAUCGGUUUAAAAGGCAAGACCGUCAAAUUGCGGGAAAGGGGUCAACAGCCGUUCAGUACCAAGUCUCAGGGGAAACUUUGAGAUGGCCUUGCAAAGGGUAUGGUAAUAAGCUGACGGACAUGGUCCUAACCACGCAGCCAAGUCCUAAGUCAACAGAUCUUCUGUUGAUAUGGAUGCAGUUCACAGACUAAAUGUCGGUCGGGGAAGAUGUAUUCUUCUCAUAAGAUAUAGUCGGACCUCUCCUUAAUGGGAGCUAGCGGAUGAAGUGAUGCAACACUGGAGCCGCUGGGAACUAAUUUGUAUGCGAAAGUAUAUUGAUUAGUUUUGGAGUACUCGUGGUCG; settings: 30 °C
No unit in the answer, only the number.

Record summary for AAGUAGCAAUAUUACGUGGG : reported self-splicing fitness (ln) = -3.49

Record summary for CCAGAGCAAUAUUACGAUUU : reported self-splicing fitness (ln) = -3.77

Record summary for GCAGAGCAAUAUUACGAUAA : reported self-splicing fitness (ln) = -3.38

Record summary for CAAGAGCAAUAUUACGGGUC : reported self-splicing fitness (ln) = -3.71

Record summary for UCACAGCAAUAUUACGUAUG : reported self-splicing fitness (ln) = -0.949

Record summary for CGCAAGCAAUAUUACGGAGU : reported self-splicing fitness (ln) = -3.16

Record summary for UAUAAGCAAUAUUACGGGUU : reported self-splicing fitness (ln) = -3.04

Record summary for UUCAAGCAAUAUUACGUACG : reported self-splicing fitness (ln) = -1.19

Record summary for GCGAAGCAAUAUUACGUUCU : reported self-splicing fitness (ln) = -1.93

Record summary for AGUCAGCAAUAUUACGGACU : reported self-splicing fitness (ln) = -2.86

Record summary for AGCCAGCAAUAUUACGUGGC : reported self-splicing fitness (ln) = -3.74

Record summary for AGAUAGCAAUAUUACGGCAU : reported self-splicing fitness (ln) = -0.734

Record summary for GGGCAGCAAUAUUACGAGUG : reported self-splicing fitness (ln) = -3.47

Record summary for GUACAGCAAUAUUACGUGCA : reported self-splicing fitness (ln) = -3.96

Record summary for CGAUAGCAAUAUUACGUGUU : reported self-splicing fitness (ln) = -4.25

Record summary for CAUCAGCAAUAUUACGGACG : reported self-splicing fitness (ln) = -0.594

----------
test: self-splicing fitness, log relative to wild type (ln ratio); higher = more splicing; Tetrahymena group I intron in knt gene, E. coli kanamycin selection, DiMSum; sequences stand for … in CUCUCU…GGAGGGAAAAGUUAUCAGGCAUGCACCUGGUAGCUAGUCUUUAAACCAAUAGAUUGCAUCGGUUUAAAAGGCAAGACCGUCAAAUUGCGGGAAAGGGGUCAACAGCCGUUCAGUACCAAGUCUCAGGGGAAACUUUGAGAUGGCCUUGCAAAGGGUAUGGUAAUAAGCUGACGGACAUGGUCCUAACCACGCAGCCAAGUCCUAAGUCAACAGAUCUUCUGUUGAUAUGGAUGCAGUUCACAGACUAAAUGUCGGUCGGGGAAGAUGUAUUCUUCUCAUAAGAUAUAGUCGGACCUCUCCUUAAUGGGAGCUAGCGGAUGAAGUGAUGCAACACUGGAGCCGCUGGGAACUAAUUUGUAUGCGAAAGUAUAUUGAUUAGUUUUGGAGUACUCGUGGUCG; settings: 30 °C
Classify as follows. Reported self-splicing fitness (ln) greater than or equal to -2: Condition met. Reported self-splicing fitness (ln) below: Condition not met.

IN: Exam item: decide whether the reported self-splicing fitness (ln) for CGUCAGCAAUAUUACGGCGG is at least -2.
OUT: Condition met

IN: Exam item: decide whether the reported self-splicing fitness (ln) for GCGCAGCAAUAUUACGAAUU is at least -2.
OUT: Condition met

IN: Exam item: decide whether the reported self-splicing fitness (ln) for AGCUAGCAAUAUUACGAUUA is at least -2.
OUT: Condition not met

IN: Exam item: decide whether the reported self-splicing fitness (ln) for UUGAAGCAAUAUUACGAAUA is at least -2.
OUT: Condition met

IN: Exam item: decide whether the reported self-splicing fitness (ln) for ACACAGCAAUAUUACGAGAA is at least -2.
OUT: Condition not met

IN: Exam item: decide whether the reported self-splicing fitness (ln) for ACCAAGCAAUAUUACGUAUU is at least -2.
OUT: Condition not met

IN: Exam item: decide whether the reported self-splicing fitness (ln) for GCGAAGCAAUAUUACGGACG is at least -2.
OUT: Condition met

IN: Exam item: decide whether the reported self-splicing fitness (ln) for UGAGAGCAAUAUUACGUAGU is at least -2.
OUT: Condition not met

IN: Exam item: decide whether the reported self-splicing fitness (ln) for AUGCAGCAAUAUUACGGUGG is at least -2.
OUT: Condition not met

IN: Exam item: decide whether the reported self-splicing fitness (ln) for CGUGAGCAAUAUUACGGCAU is at least -2.
OUT: Condition not met

IN: Exam item: decide whether the reported self-splicing fitness (ln) for CGAAAGCAAUAUUACGUAGA is at least -2.
OUT: Condition not met

IN: Exam item: decide whether the reported self-splicing fitness (ln) for CUCGAGCAAUAUUACGACUA is at least -2.
OUT: Condition not met

IN: Exam item: decide whether the reported self-splicing fitness (ln) for CGGAAGCAAUAUUACGUUAA is at least -2.
OUT: Condition not met

IN: Exam item: decide whether the reported self-splicing fitness (ln) for GACCAGCAAUAUUACGUAGC is at least -2.
OUT: Condition met

IN: Exam item: decide whether the reported self-splicing fitness (ln) for GGUUAGCAAUAUUACGGUAC is at least -2.
OUT: Condition met
